The reported numbers originate from PubChem BioAssay AID1739.

# assay-text: Counterscreen Assay for Enhancers of SMN2 Splice Variant Expression: Modulation of SMN1 Expression
# experimental-parameters: HEK293 SMN1-luciferase reporter, luminescence, 30-36 h; series mostly up to 22.8 µM
# Text: NIH Chemical Genomics Center [NCGC] NIH Molecular Libraries Probe Production centers Network [MLPCN] MLPCN Grant: R03 MH084179-01 Assay Submitter (PI): Elliot Androphy NCGC Assay Overview: Spinal muscular atrophy (SMA) is caused by insufficient levels of the survival motor neuron protein SMN. The SMN locus on chromosome 5q13 contains two inverted copies of SMN called SMN1 and SMN2 which are 99% identical at the amino acid level. […]
Results filed as inconclusive are left out. Active and inactive are the calls of the source. Calls come from the whole dose curve; as a rule, active = well fitted inhibition curve with a large enough effect; inconclusive = small, poorly fitted or top-dose-only effect; inactive = flat fitted curve, though single readings scatter.
Outcome codes: True for active, False for inactive

>>> df
                                    compound  classification
 0  CCCCOC(C)n1cc(F)c(=O)[nH]c1=O (stereo not drawn)           False
 1  O=C(NCc1cccs1)C(=O)NCC1OCCCN1S(=O)(=O)c1ccccc1 (stereo not drawn)           False
 2     OCCCNc1nc(-c2ccc(Cl)cc2)nnc1-c1ccccc1           False
 3  O=C1CCC(C(=O)Nc2cccc3ccccc23)N1 (stereo not drawn)           False
 4       Cn1c(C(=O)NCc2cccs2)cc2oc3ccccc3c21            True
 5               c1coc(CNc2ncnc3nc[nH]c23)c1           False
 6        Cc1ccc(C(=O)Cn2c3c(sc2=N)CCCC3)cc1            True
 7  Clc1ccc(-c2nnc(-c3ccc(Br)cc3)c(N3CCSCC3)n2)cc1           False
 8                 Cc1nnc(-c2ccccc2)[nH]c1=O           False
 9              NC(=O)N1c2ccccc2C=Cc2ccccc21           False
10  O=c1[nH]c(=O)n(C2CCCO2)cc1Br (stereo not drawn)           False
11        COc1ccc(CNC(=O)c2ccc(C(C)C)cc2)cc1           False
12               O=C(NCCc1cn2ccsc2n1)c1cccs1           False
